Where do these numbers come from? They come from paper PMC7884259.

Target: T1, ATAD2B bromodomain N1038A (human, UniProt Q9ULI0 953-1085, N1038A)
T1 sequence (looked up): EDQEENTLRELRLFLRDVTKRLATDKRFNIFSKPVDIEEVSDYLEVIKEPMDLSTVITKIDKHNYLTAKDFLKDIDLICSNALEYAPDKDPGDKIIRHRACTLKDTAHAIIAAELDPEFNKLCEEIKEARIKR
Experiment: ITC
Where no end group is shown, it is not given here.
Outcome Measure: Kd (µM)
Answers are plain numbers, in µM.

Give recorded Kd. SGRGK(Ac)GGK(Ac)GL-NH2 [H4K5acK8ac (res 1–10)] 623
